# Protocol Notes: Oral bioavailability in Sprague-Dawley rat at 2 mg/kg
# Type: ADME, organism-based
# Conditions: in vivo
Measured Parameter: bioavailability (%)
Form entry: value (%) — number only.

Qu. Supply bioavailability value. Item: CC(C)(O)c1ccc(-c2cccc(N(CC34CCC(c5noc(C(C)(C)F)n5)(CC3)CC4)C(=O)[C@H]3C[C@](O)(C(F)(F)F)C3)c2)cc1
Ans. 40

----------
# Target Or Test System: Cytochrome P450 2C19 (Homo sapiens)
# Sequence (P33261 whole entry): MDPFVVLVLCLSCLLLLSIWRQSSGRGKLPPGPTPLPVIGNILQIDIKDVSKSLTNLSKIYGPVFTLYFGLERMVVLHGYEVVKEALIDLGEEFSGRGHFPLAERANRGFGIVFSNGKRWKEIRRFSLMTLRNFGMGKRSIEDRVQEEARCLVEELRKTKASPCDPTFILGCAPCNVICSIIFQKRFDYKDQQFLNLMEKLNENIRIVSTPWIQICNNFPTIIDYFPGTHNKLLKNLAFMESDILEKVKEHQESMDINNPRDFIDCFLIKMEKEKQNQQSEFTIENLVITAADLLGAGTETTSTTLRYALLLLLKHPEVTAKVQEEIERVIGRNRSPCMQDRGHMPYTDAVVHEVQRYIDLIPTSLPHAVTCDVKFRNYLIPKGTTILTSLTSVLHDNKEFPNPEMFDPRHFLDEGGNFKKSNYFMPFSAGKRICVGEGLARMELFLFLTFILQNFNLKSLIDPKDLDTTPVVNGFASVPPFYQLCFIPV
# Protocol Notes: Inhibition of CYP2C19 in human liver microsomes using fluorogenic substrate preincubated for 15 min followed by NADPH addition measured after 2 hrs by fluorescence based assay
# Assay type: ADME, Microsome
pIC50: −log10 of the molar value.
Measured Parameter: pIC50

Qu. Supply pIC50 value. Item: CC(C)(O)c1ccc(-c2cccc(N(CC34CCC(c5noc(C(C)(C)F)n5)(CC3)CC4)C(=O)[C@H]3C[C@](O)(C(F)(F)F)C3)c2)cc1
Ans. < 4.70

----------
# Target Or Test System: Bile salt export pump (Homo sapiens, UniProt O95342)
# Sequence (O95342 whole entry): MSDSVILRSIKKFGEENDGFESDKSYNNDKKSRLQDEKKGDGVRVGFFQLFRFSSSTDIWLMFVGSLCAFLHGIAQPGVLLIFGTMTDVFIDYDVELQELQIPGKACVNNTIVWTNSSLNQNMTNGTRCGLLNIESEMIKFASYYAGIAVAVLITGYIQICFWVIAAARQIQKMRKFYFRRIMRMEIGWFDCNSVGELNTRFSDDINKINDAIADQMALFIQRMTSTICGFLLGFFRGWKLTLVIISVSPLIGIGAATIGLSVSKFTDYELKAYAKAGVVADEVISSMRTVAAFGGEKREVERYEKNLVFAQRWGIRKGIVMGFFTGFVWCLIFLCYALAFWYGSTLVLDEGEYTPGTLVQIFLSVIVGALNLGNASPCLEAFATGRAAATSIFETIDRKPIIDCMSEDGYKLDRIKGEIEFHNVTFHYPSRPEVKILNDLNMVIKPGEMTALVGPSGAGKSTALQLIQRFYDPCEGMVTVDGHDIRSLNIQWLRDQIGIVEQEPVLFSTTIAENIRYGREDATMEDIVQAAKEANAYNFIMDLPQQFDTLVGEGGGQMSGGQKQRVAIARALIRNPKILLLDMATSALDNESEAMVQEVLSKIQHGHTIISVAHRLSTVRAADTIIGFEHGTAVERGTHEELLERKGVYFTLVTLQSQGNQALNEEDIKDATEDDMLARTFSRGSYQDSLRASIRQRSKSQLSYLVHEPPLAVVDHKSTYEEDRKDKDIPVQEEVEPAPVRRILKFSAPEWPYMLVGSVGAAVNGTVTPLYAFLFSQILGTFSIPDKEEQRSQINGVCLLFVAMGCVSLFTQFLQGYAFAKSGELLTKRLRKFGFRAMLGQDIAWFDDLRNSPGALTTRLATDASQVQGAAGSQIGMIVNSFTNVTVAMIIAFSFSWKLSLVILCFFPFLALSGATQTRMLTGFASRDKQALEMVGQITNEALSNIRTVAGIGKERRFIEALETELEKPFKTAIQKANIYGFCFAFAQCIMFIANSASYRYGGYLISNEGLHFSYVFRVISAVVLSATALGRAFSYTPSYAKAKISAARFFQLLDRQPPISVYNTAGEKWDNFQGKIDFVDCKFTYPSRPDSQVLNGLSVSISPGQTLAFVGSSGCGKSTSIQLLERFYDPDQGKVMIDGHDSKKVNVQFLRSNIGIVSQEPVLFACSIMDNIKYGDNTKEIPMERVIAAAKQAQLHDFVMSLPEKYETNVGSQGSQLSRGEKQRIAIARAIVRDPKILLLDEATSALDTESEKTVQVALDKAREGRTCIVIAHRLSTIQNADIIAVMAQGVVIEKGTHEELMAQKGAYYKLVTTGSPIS
# Protocol Notes: Inhibition of BSEP (unknown origin)
Measured Parameter: pIC50
Reminder that pIC50 means the negative base-10 logarithm of the concentration expressed in mol/L.

Qu. Report the value of pIC50 obtained on Bile salt export pump (Homo sapiens, UniProt O95342) for CC(C)(O)c1ccc(-c2cccc(N(CC34CCC(c5noc(C(C)(C)F)n5)(CC3)CC4)C(=O)[C@H]3C[C@](O)(C(F)(F)F)C3)c2)cc1 .
Ans. 5.85

----------
# Protocol Notes: Metabolic stability in rat liver microsome assessed as parent compound remaining at 1 mg/mL measured after 10 mins
# Format: ADME
# Conditions: liver microsomes, read-out: Stability
Exercise: for every item that follows, state its recorded remaining at 10 min, 1 mg/mL.
Form entry: value (%) — number only.

Qu. Supply remaining at 10 min, 1 mg/mL value. Item: COC(=O)/C=C/c1cccc(N(CC23CCC(c4ccc(OC)cc4)(CC2)CC3)C(=O)C2CCCCC2)c1
Ans. 8

Qu. Supply remaining at 10 min, 1 mg/mL value. Item: COC(=O)/C=C/c1cccc(N(CC23CCC(c4ccc(N(C)C)cc4)(CC2)CC3)C(=O)C2CCCCC2)c1
Ans. 32

Qu. Supply remaining at 10 min, 1 mg/mL value. Item: COC(=O)/C=C/c1cccc(N(CC23CCC(c4nc(C)no4)(CC2)CC3)C(=O)C2CCCCC2)c1
Ans. 31

----------
# Target Or Test System: Bile acid receptor (Homo sapiens)
# Sequence (Q96RI1 whole entry, the tested form may be a part): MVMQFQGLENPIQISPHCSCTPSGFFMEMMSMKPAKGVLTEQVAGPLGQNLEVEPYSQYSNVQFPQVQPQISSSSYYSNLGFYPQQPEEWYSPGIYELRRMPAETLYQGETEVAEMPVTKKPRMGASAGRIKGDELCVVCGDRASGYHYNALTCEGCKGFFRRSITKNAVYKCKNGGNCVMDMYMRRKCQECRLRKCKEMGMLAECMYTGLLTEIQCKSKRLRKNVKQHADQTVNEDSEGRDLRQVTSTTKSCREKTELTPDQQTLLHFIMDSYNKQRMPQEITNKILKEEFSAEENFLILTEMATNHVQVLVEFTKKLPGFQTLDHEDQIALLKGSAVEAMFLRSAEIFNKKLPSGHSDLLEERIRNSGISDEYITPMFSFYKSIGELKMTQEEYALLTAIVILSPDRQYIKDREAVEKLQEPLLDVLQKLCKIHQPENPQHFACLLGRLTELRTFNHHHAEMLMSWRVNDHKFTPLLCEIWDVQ
# Protocol Notes: Agonist activity at Gal4-fused human FXR in HEK293 cells incubated for 15 min by luciferase reporter assay
# Type: cell-based
Exercise: for every item that follows, state its recorded EC50.

Qu. Supply EC50 value. Item: COC(=O)/C=C/c1cccc(N(CC23CCC(c4nc(C)no4)(CC2)CC3)C(=O)C2CCCCC2)c1
Ans. 57 nM

Qu. Supply EC50 value. Item: CC(C)(C)c1nc(C23CCC(CN(C(=O)C45CC(F)(C4)C5)c4cccc(-c5nnc(C6CC6)o5)c4)(CC2)CC3)no1
Ans. 45 nM

Qu. Supply EC50 value. Item: COc1cc(-c2cccc(N(CC34CCC(c5nc(C6CC6)no5)(CC3)CC4)C(=O)C3CCCCC3)c2)ccn1
Ans. 95 nM

Qu. Supply EC50 value. Item: COC(=O)/C=C/c1cccc(N(CC23CCC(c4ccc(N5CCCC5)cc4)(CC2)CC3)C(=O)C2CCCCC2)c1
Ans. 299 nM

Qu. Supply EC50 value. Item: O=C(C1CCC(F)(F)CC1)N(CC12CCC(c3nc(C4CC4)no3)(CC1)CC2)c1cccc(-c2nc(C3CC3)no2)c1
Ans. 149 nM

Qu. Supply EC50 value. Item: CC(C)(O)c1ccc(-c2cccc(N(CC34CCC(c5noc(C(C)(C)F)n5)(CC3)CC4)C(=O)[C@H]3C[C@](O)(C(F)(F)F)C3)c2)cc1
Ans. 34 nM

Qu. Supply EC50 value. Item: CCOc1ncc(-c2cccc(N(CC34CCC(c5noc(C(C)(C)C)n5)(CC3)CC4)C(=O)C34CC(F)(C3)C4)c2)cn1
Ans. 41 nM

Qu. Supply EC50 value. Item: CCOc1ncc(-c2cccc(N(CC34CCC(c5noc(C(F)F)n5)(CC3)CC4)C(=O)C34CC(F)(C3)C4)c2)cn1
Ans. 170 nM

----------
# Target Or Test System: UniProt O75469
# Sequence (O75469 whole entry): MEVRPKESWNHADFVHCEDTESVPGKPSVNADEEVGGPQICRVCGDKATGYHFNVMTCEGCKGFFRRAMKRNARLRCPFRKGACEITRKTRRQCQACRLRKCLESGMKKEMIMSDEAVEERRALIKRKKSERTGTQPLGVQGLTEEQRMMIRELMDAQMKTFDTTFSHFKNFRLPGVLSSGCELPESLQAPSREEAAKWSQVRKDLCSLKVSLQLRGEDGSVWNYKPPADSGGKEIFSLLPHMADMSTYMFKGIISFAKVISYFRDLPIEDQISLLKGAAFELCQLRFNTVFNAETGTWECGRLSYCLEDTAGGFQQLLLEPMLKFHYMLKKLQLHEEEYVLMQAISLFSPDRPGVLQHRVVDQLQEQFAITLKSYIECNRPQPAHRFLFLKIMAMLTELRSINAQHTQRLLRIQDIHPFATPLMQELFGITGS
# Protocol Notes: Transactivation of PXR (unknown origin) relative to refampicin
# Type: ADME
Measured Parameter: Emax (%)
Form entry: value (%) — number only.

Qu. Report the value of Emax obtained on UniProt O75469 for O=C(C1CCS(=O)(=O)CC1)N(CC12CCC(c3nc(C4CC4)no3)(CC1)CC2)c1cccc(-c2nc(C3CC3)no2)c1 .
Ans. 48

Qu. Report the value of Emax obtained on UniProt O75469 for O=C(C1CCC(F)(F)CC1)N(CC12CCC(c3nc(C4CC4)no3)(CC1)CC2)c1cccc(-c2nc(C3CC3)no2)c1 .
Ans. 35

Qu. Report the value of Emax obtained on UniProt O75469 for CCOc1ncc(-c2cccc(N(CC34CCC(c5noc(C(C)(C)C)n5)(CC3)CC4)C(=O)C34CC(F)(C3)C4)c2)cn1 .
Ans. 9

Qu. Report the value of Emax obtained on UniProt O75469 for CN1CCC(C(=O)N(CC23CCC(c4nc(C5CC5)no4)(CC2)CC3)c2cccc(-c3nc(C4CC4)no3)c2)CC1 .
Ans. 11

Qu. Report the value of Emax obtained on UniProt O75469 for CCOc1ccc(-c2cccc(N(CC34CCC(c5noc(C(C)(C)C)n5)(CC3)CC4)C(=O)C34CC(F)(C3)C4)c2)cn1 .
Ans. 9

Qu. Report the value of Emax obtained on UniProt O75469 for CCOc1ncc(-c2cccc(N(CC34CCC(c5noc(C(C)(C)C)n5)(CC3)CC4)C(=O)[C@H]3C[C@](O)(C(F)(F)F)C3)c2)cn1 .
Ans. 10

Qu. Report the value of Emax obtained on UniProt O75469 for O=C(C1CC(F)(F)C1)N(CC12CCC(c3nc(C4CC4)no3)(CC1)CC2)c1cccc(-c2nc(C3CC3)no2)c1 .
Ans. 62

----------
# Protocol Notes: Half life in C57BL6 mouse at 1 mg/kg, iv
# Type: ADME, organism-based
# Conditions: in vivo
Measured Parameter: half-life (h)
Form entry: value (h) — number only.

Qu. Supply half-life value. Item: CC(C)(O)c1ccc(-c2cccc(N(CC34CCC(c5noc(C(C)(C)F)n5)(CC3)CC4)C(=O)[C@H]3C[C@](O)(C(F)(F)F)C3)c2)cc1
Ans. 16

----------
# Target Or Test System: Cytochrome P450 2D6 (Homo sapiens, UniProt P10635)
# Sequence (P10635 whole entry): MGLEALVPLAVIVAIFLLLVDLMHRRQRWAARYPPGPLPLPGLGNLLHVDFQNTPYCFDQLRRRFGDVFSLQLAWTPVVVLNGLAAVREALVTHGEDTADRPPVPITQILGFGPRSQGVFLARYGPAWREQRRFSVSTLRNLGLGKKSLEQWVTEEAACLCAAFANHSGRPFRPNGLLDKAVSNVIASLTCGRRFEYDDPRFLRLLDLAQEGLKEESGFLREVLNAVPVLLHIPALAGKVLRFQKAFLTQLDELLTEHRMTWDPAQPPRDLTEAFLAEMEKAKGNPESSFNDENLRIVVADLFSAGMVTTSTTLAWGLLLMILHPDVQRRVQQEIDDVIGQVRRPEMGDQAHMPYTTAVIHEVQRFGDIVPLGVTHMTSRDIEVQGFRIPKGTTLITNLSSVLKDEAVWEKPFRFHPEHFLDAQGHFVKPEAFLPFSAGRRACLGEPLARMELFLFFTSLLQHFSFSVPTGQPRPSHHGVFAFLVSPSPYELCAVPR
pIC50: −log10 of the molar value.
Measured Parameter: pIC50

Qu. Supply pIC50 value. Item: CC(C)(O)c1ccc(-c2cccc(N(CC34CCC(c5noc(C(C)(C)F)n5)(CC3)CC4)C(=O)[C@H]3C[C@](O)(C(F)(F)F)C3)c2)cc1
Ans. < 4.70

----------
# Protocol Notes: Metabolic stability in mouse liver microsome assessed as parent compound remaining at […] measured after 10 mins
# Type: ADME
# Conditions: liver microsomes, read-out: Stability
# remaining at 10 min binned as low bin = under 80%, mid bin = from 80% up to 90%, high bin = 90% and over

Qu. Which bin should I file CCOc1ncc(-c2cccc(N(CC34CCC(c5noc(C(C)(C)C)n5)(CC3)CC4)C(=O)C34CC(F)(C3)C4)c2)cn1 under?
Ans. low bin

Qu. Which bin should I file O=C(C1CCOCC1)N(CC12CCC(c3nc(C4CC4)no3)(CC1)CC2)c1cccc(-c2nc(C3CC3)no2)c1 under?
Ans. low bin

Qu. Which bin should I file CC(C)(O)c1ccc(-c2cccc(N(CC34CCC(c5noc(C(C)(C)F)n5)(CC3)CC4)C(=O)[C@H]3C[C@@](C)(O)C3)c2)cc1 under?
Ans. high bin

Qu. Which bin should I file O=C(C1CC(F)(F)C1)N(CC12CCC(c3nc(C4CC4)no3)(CC1)CC2)c1cccc(-c2nc(C3CC3)no2)c1 under?
Ans. high bin

Qu. Which bin should I file O=C(C1CCS(=O)(=O)CC1)N(CC12CCC(c3nc(C4CC4)no3)(CC1)CC2)c1cccc(-c2nc(C3CC3)no2)c1 under?
Ans. high bin

Qu. Which bin should I file CCOc1ccc(-c2cccc(N(CC34CCC(c5noc(C(C)(C)C)n5)(CC3)CC4)C(=O)C34CC(F)(C3)C4)c2)cn1 under?
Ans. low bin

Qu. Which bin should I file O=C(N(CC12CCC(c3nc(C4CC4)no3)(CC1)CC2)c1cccc(-c2nc(C3CC3)no2)c1)C12CC(F)(C1)C2 under?
Ans. high bin

Qu. Which bin should I file CCOc1ncc(-c2cccc(N(CC34CCC(c5noc(C(C)(C)C)n5)(CC3)CC4)C(=O)[C@H]3C[C@](O)(C(F)(F)F)C3)c2)cn1 under?
Ans. mid bin

Qu. Which bin should I file CC(C)(C)c1nc(C23CCC(CN(C(=O)C45CC(F)(C4)C5)c4cccc(-c5nnc(C6CC6)o5)c4)(CC2)CC3)no1 under?
Ans. low bin

Qu. Which bin should I file CC(C)(C)c1noc(C23CCC(CN(C(=O)C45CC(F)(C4)C5)c4cccc(-c5nc(C6CC6)no5)c4)(CC2)CC3)n1 under?
Ans. high bin

Qu. Which bin should I file CCOc1ncc(-c2cccc(N(CC34CCC(c5noc(C(C)(C)C)n5)(CC3)CC4)C(=O)[C@H]3C[C@@](C)(O)C3)c2)cn1 under?
Ans. mid bin

Qu. Which bin should I file O=C(C1CCCCC1)N(CC12CCC(c3nc(C4CC4)no3)(CC1)CC2)c1cccc(-c2nc(C3CC3)no2)c1 under?
Ans. low bin

Qu. Which bin should I file CN1CCC(C(=O)N(CC23CCC(c4nc(C5CC5)no4)(CC2)CC3)c2cccc(-c3nc(C4CC4)no3)c2)CC1 under?
Ans. low bin

Qu. Which bin should I file CCOc1ncc(-c2cccc(N(CC34CCC(c5noc(C(F)F)n5)(CC3)CC4)C(=O)C34CC(F)(C3)C4)c2)cn1 under?
Ans. mid bin
